Target: Nonstructural protein 3 (Zika virus) (UniProt A0A024AXB9)
Experiment: Inhibition of ZIKV NS2B-NS3 protease expressed in Escherichia coli BL21(DE3) using Boc-Gly-Arg-Arg-AMC as substrate at 200 uM by FRET assay
Calls of active or inactive are those of the source. The calls are words filed in the database; no cut-off is given here.

{"smiles-structure": "O=C(Nc1ccccc1)c1cc2cc([N+](=O)[O-])c(O)cc2o1", "inhibition": "48%"}
{"smiles-structure": "O=C(Nc1ccccc1)c1cc2cc(O)ccc2o1", "inhibition": "inactive"}
{"smiles-structure": "O=C(Nc1ccccc1)c1cc2ccc(O)cc2o1", "inhibition": "inactive"}
{"smiles-structure": "Nc1cc2cc(C(=O)Nc3ccccc3)oc2cc1O", "inhibition": "52%"}

====

Experiment: Chemical stability of compound in cell culture conditions at pH 7.4 HEPES buffer measured after 20 hrs by HPLC/MS analysis
Format: physicochemical
Conditions: read-out: Stabilty
reported-metric: remaining at 20 h (%)
Give the number; % is assumed, so skip it.

Previously resolved entries follow.
{"smiles-structure": "O=C(Nc1nc2cc(O)c(O)cc2s1)c1ccc(I)cc1", "remaining at 20 h (%)": 95}
{"smiles-structure": "O=C(Nc1ccccc1)c1nc2cc(O)c(O)cc2s1", "remaining at 20 h (%)": 95}
{"smiles-structure": "O=C(Nc1nc2cc(O)c(O)cc2s1)C(c1ccccc1)c1ccccc1", "remaining at 20 h (%)": 95}
{"smiles-structure": "O=C(Nc1ccccc1)c1cc2cc(O)c(O)cc2o1", "remaining at 20 h (%)": 95}
{"smiles-structure": "O=C(Nc1ccccc1)[C@@H]1CCCN1C(=O)c1cc2cc(O)c(O)cc2o1", "remaining at 20 h (%)": 95}

Here is another molecule to look at.
Asked: // returns reported remaining at 20 h for input `O=C(Nc1nc2cc(O)c(O)cc2s1)c1ccccc1`
Given back: 95

====

Biological target: Chymotrypsin (Homo sapiens) (UniProt Q99895+P17538+P40313+Q6GPI1)
Test: Inhibition of Chymotrypsin (unknown origin) assessed as residual enzyme activity at 20 uM by FRET assay relative to control
Assay type: protein assay
reported-metric: Activity (%)
Give the number; % is assumed, so skip it.

Previously resolved entries follow.
{"smiles-structure": "O=C(Nc1ccccc1)c1cc2cc(O)c(O)cc2o1", "unit-info": "%", "test-value": 58}
{"smiles-structure": "O=C(Nc1ccccc1)[C@@H]1CCCN1C(=O)c1cc2cc(O)c(O)cc2o1", "unit-info": "%", "test-value": 78}
{"smiles-structure": "O=C(Nc1nc2cc(O)c(O)cc2s1)C(c1ccccc1)c1ccccc1", "unit-info": "%", "test-value": 96}
{"smiles-structure": "O=C(Nc1nc2cc(O)c(O)cc2s1)c1ccc(I)cc1", "unit-info": "%", "test-value": 79}
{"smiles-structure": "O=C(Nc1ccccc1)[C@@H]1CCCCN1C(=O)c1cc2cc(O)c(O)cc2o1", "unit-info": "%", "test-value": 77}
{"smiles-structure": "O=C(Nc1nc2cc(O)c(O)cc2s1)c1ccccc1", "unit-info": "%", "test-value": 77}

Asked: // returns reported Activity for input `Cc1ccc(S(=O)(=O)N2CCC[C@@H]2C(=O)Nc2nc3cc(O)c(O)cc3s2)cc1`
Given back: 100

====

Biological target: UniProtKB A0A024AXB9
Test: Inhibition of ZIKV NS2B-NS3 protease expressed in Escherichia coli BL21(DE3) using Boc-Gly-Arg-Arg-AMC as substrate at 20 uM by FRET assay
reported-metric: inhibition (%)
Give the number; % is assumed, so skip it.

{"smiles-structure": "O=C(CCNC(=O)c1ccccc1)Nc1nc2cc(O)c(O)cc2s1", "inhibition, %": 38}
{"smiles-structure": "CCN(CC)C(=O)C[C@H](NC(=O)c1ccccc1)C(=O)Nc1nc2cc(O)c(O)cc2s1", "inhibition, %": 13}
{"smiles-structure": "O=C(Nc1nc2ccc([N+](=O)[O-])cc2s1)c1ccc(I)cc1", "inhibition, %": 49}

Asked: // returns reported inhibition for input `O=C(Nc1ccccc1)[C@@H]1CCCN1C(=O)c1cc2cc(O)c(O)cc2[nH]1`
Given back: 44

Asked: // returns reported inhibition for input `O=C(Nc1ccccc1)[C@@H]1CCCN1C(=O)c1cnc2cc(O)c(O)cc2c1`
Given back: 44

====

Target: Sortase A (Staphylococcus aureus) (UniProt Q9S446)
Experiment: Inhibition of staphylococcus aureus Sortase A protease assessed as residual enzyme activity at 20 uM by FRET assay relative to control
Consider the following molecules and their measured Activity readings.

{"smiles-structure": "O=C(Nc1ccccc1)c1cc2cc(O)c(O)cc2o1", "Activity": "64%"}

Asked: // returns reported Activity for input `O=C(Nc1ccccc1)[C@@H]1CCCN1C(=O)c1cc2cc(O)c(O)cc2o1`
Given back: 81%

Asked: // returns reported Activity for input `O=C(Nc1nc2cc(O)c(O)cc2s1)c1ccccc1`
Given back: 57%

Asked: // returns reported Activity for input `O=C(Nc1nc2cc(O)c(O)cc2s1)c1ccc(I)cc1`
Given back: 74%

Asked: // returns reported Activity for input `Cc1ccc(S(=O)(=O)N2CCC[C@@H]2C(=O)Nc2nc3cc(O)c(O)cc3s2)cc1`
Given back: 83%

Asked: // returns reported Activity for input `O=C(Nc1ccccc1)[C@@H]1CCCCN1C(=O)c1cc2cc(O)c(O)cc2o1`
Given back: 74%

Asked: // returns reported Activity for input `O=C(Nc1nc2cc(O)c(O)cc2s1)C(c1ccccc1)c1ccccc1`
Given back: 73%

====

Assay read-out pIC50; system under study: Nonstructural protein 3 (Zika virus, UniProt A0A024AXB9).
The value called pIC50 is obtained by taking minus log10 of the concentration in mol/L.

Previously resolved entries follow.
{"smiles-structure": "O=C(Nc1ccccc1)c1cc2cc(O)c(O)cc2s1", "target-or-test-system": "Nonstructural protein 3 (Zika virus, UniProt A0A024AXB9)", "pIC50": 5.80}
{"smiles-structure": "Cc1ccc(C(=O)Nc2nc3cc(O)c(O)cc3s2)cc1", "target-or-test-system": "Nonstructural protein 3 (Zika virus, UniProt A0A024AXB9)", "pIC50": 4.81}
{"smiles-structure": "O=C(Nc1nc2cc(O)c(O)cc2s1)C(c1ccc(Cl)cc1)c1ccc(Cl)cc1", "target-or-test-system": "Nonstructural protein 3 (Zika virus, UniProt A0A024AXB9)", "pIC50": 6.02}
{"smiles-structure": "O=C(Nc1nc2cc(O)c(O)cc2s1)c1ccc(Cl)cc1", "target-or-test-system": "Nonstructural protein 3 (Zika virus, UniProt A0A024AXB9)", "pIC50": 5.18}

Asked: Lab note: need pIC50 for `O=C(Nc1ccccc1)c1cnc2cc(O)c(O)cc2c1` on Nonstructural protein 3 (Zika virus, UniProt A0A024AXB9), anyone have it?
Given back: 5.20

Asked: Lab note: need pIC50 for `O=C(Nc1ccccc1)[C@@H]1CCCCN1C(=O)c1cc2cc(O)c(O)cc2o1` on Nonstructural protein 3 (Zika virus, UniProt A0A024AXB9), anyone have it?
Given back: 5.54

Asked: Lab note: need pIC50 for `O=C(Nc1ccccc1)[C@@H]1CCCN1C(=O)c1cc2c(O)cc(O)cc2o1` on Nonstructural protein 3 (Zika virus, UniProt A0A024AXB9), anyone have it?
Given back: 4.70

Asked: Lab note: need pIC50 for `Cc1ccc(S(=O)(=O)N[C@@H](Cc2ccccc2)C(=O)Nc2nc3cc(O)c(O)cc3s2)cc1` on Nonstructural protein 3 (Zika virus, UniProt A0A024AXB9), anyone have it?
Given back: 5.44

Asked: Lab note: need pIC50 for `O=C(Nc1nc2cc(O)c(O)cc2s1)C(c1ccccc1)c1ccccc1` on Nonstructural protein 3 (Zika virus, UniProt A0A024AXB9), anyone have it?
Given back: 6.02

Asked: Lab note: need pIC50 for `O=C(Nc1ccccc1)c1nc2cc(O)c(O)cc2s1` on Nonstructural protein 3 (Zika virus, UniProt A0A024AXB9), anyone have it?
Given back: 5.04

Asked: Lab note: need pIC50 for `O=C(Nc1nc2cc(O)c(O)cc2s1)c1ccccc1` on Nonstructural protein 3 (Zika virus, UniProt A0A024AXB9), anyone have it?
Given back: 5.04

====

Experiment: Chemical stability of compound in tris assay buffer at pH 9 measured after 20 hrs by HPLC/MS analysis
Assay type: physicochemical
Conditions: pH 9, 20 h
Consider the following molecules and their measured Stabilty readings.
Give the number; % is assumed, so skip it.

Previously resolved entries follow.
{"smiles-structure": "O=C(Nc1nc2cc(O)c(O)cc2s1)c1ccc(I)cc1", "reported-metric": "Stabilty", "test-value": 83}
{"smiles-structure": "O=C(Nc1nc2cc(O)c(O)cc2s1)c1ccccc1", "reported-metric": "Stabilty", "test-value": 83}
{"smiles-structure": "O=C(Nc1ccccc1)c1cc2cc(O)c(O)cc2o1", "reported-metric": "Stabilty", "test-value": 83}
{"smiles-structure": "O=C(Nc1nc2cc(O)c(O)cc2s1)C(c1ccccc1)c1ccccc1", "reported-metric": "Stabilty", "test-value": 83}
{"smiles-structure": "O=C(Nc1ccccc1)c1nc2cc(O)c(O)cc2s1", "reported-metric": "Stabilty", "test-value": 88}

Here is another molecule to look at.
Asked: // returns reported Stabilty for input `O=C(Nc1ccccc1)[C@@H]1CCCN1C(=O)c1cc2cc(O)c(O)cc2o1`
Given back: 83

Where these numbers come from: ChEMBL document CHEMBL4823320
